Recorded values, source paper PMC10598736.

Molecular target: T1, SLF1 tandem BRCT repeat (SLF1^tBRCT), residues 1-199, wild type (UniProt Q9BQI6 1-199)
T1 construct: SMC5/6 localization factor 1 (SLF1), tandem BRCT repeat at the N-terminus, residues 1-199; coding region optimized for E. coli and synthesized; also called WT; SMC5/6 localization factor 1 tBRCT; source: E. coli BL21 Rosetta (DE3), purified (Ni-NTA, heparin, gel filtration)
T1 sequence (looked up): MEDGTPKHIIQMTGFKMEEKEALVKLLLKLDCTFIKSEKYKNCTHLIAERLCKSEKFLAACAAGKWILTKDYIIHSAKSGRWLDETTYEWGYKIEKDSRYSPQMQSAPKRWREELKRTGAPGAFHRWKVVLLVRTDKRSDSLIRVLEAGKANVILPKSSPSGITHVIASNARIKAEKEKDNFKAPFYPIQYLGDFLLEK
Assay: ITC; MicroCal ITC 200, 25 °C, 20 mM Tris (pH 7.5), 200 mM sodium chloride; 1.3 mM Rad18 peptide or 6 mM BRCTide injected into 0.1 mM (Rad18 peptides) or 0.2 mM (BRCTide) SLF1^tBRCT in the cell; three independent repeats
Conditions: both partners purified
Square brackets hold non-standard residues; d marks the D form. Ends that are not written are not given here. pS = N[C@@H](COP(=O)(O)O)C(=O)O
Reported stoichiometry N is given for each of the following binders.
Give a plain numeric answer without units written out.

Before answering, review these 4 worked examples.
binder	stoichiometry N
SDSCNS[pS]S[pS]DIIADLLE (peptide, UniProt Q9NS91 436-452, looked up, Rad18, human, residues 436-452, with R448A; source: synthetic peptide) [Rad18-2P-R448A peptide]	1.63
SDSCNS[pS]S[pS]DIIRALLE (peptide, UniProt Q9NS91 436-452, looked up, Rad18, human, residues 436-452, with D449A; source: synthetic peptide) [Rad18-2P-D449A peptide]	1.52
SDSCNS[pS]SSDIIRDAAE (peptide, UniProt Q9NS91 436-452, looked up, Rad18, human, residues 436-452, with L450A/L451A; source: synthetic peptide) [Rad18-pS442-2LA peptide (L450A/L451A)]	1.67
GAAYDI[pS]QVFPFAKKK (source: synthetic peptide) [BRCTide, phosphopeptide optimized for binding to the BRCA1 tBRCT]	1.12

Find the recorded stoichiometry N belonging to SDSCAS[pS]S[pS]DIIRDLLE (peptide, UniProt Q9NS91 436-452, looked up, Rad18, human, residues 436-452, with N440A; source: synthetic peptide) [Rad18-2P-N440A peptide] and report it. 1.76
